GI50 overview
Tested on: HOP-92
ASSAY_SUMMARY: NCI tumour cell line growth inhibition, 48 h
The source made the active and inactive calls. Cut-off read from the data, not from the text of the source: active = GI50 up to about 1.1 µM and inactive = higher.
PROPERTY_LABEL: GI50

1. CC1=NN(c2cccc(Cl)c2)C2(C1=C/C=C/c1ccccc1)C(Cl)C(=O)N2c1nc2ccccc2s1 (centres undefined); 19.5 µM (inactive)
2. COC(=O)N/N=C(\C)C(CN(C)C)C(c1ccccc1)c1c(O)c2ccccc2oc1=O (centres undefined); 27.2 µM (inactive)
3. CC(C)=CC[C@]12CCN(C)[C@H]1N(S(=O)(=O)c1ccccc1)c1ccccc12; 3.38 µM (inactive)
4. CC1OC(OC2C(O)C(O)C(O)C(O)C2O)C(N)CC1NC(=N)C(=O)O (centres undefined); > 100 µM (inactive)

====

Test system: OVCAR-8
ASSAY_SUMMARY: NCI tumour cell line growth inhibition, 48 h
Calls of active or inactive are those of the source. No stated cut-off is given here; in the data, active = GI50 up to about 1.1 µM and inactive = higher.
Outcome codes: active, inactive

1) COc1cc(O)c2c(O)c3c(c4c2c1[C@]1(C4)C(C)=CCCC1(C)C)[C@H](O)[C@@]1(O)CC(O)=C(C(N)=O)C(=O)[C@@]1(O)C3=O; active
2) CC(=O)O[C@H]1CCN2C(=O)C=CC(OCc3ccccc3)C12 (stereo partly drawn); inactive
3) COc1c(N2CCCCC2)c2c(=O)c3ccccc3oc2c2cc(C)oc12; inactive

====

Tested on: MDA-MB-231
ASSAY_SUMMARY: NCI tumour cell line growth inhibition, 48 h
Calls of active or inactive are those of the source. No stated cut-off is given here; in the data, active = GI50 up to about 1.1 µM and inactive = higher.
Form field: GI50 (one value per entry).
PROPERTY_LABEL: GI50

1) O=C(NCCCN1CCN(CCCNC(=O)Nc2cccc3ccccc23)CC1)Nc1cccc2ccccc12; 2.25 µM (inactive)
2) COC(=O)CSSCc1ccc([N+](=O)[O-])cc1; 19.1 µM (inactive)
3) O=S(=O)(O)c1cccc2ccc(O)c(/N=N\c3ccc(S(=O)(=O)c4ccc(/N=N/c5c(O)ccc6cccc(S(=O)(=O)O)c56)cc4)cc3)c12; > 100 µM (inactive)
4) COC(=O)NC1C(C)OC(OC2C/C=C(/C)C3C=CC4C(OC5CC(OC6CC(OC7CC(O)C(O)C(C)O7)C(OC7CC(O)C(OC)C(C)O7)C(C)O6)C(O)C(C)O5)C(C)CC(C)C4C3(C)C(=O)C3=C(O)C4(CC(C)C(CO)=CC4/C=C\2C)OC3=O)CC1(C)[N+](=O)[O-] (stereo not given); 12 µM (inactive)
5) CCOC(=O)c1c(N2CCCC2)ncn(C)c1=S; > 100 µM (inactive)
6) Cc1cc2c(s1)C(N)CC2=O (stereo not given); > 100 µM (inactive)
7) COc1cc(C2S/C(=C/c3ccccc3)C(=O)N2c2ccc(Cl)c(Cl)c2)cc(OC)c1OC (stereo not given); > 50.8 µM (inactive)
8) Nc1ccc(-c2nc3ccc(F)cc3s2)cc1; 25.3 µM (inactive)
9) O=c1oc2c([N+](=O)[O-])cc([N+](=O)[O-])cc2c2ccccc12; > 100 µM (inactive)
10) CCCCCCCCCCc1c2nc(c(CCCCCCCCCC)c3ccc([nH]3)c(CCCCCCCCCC)c3nc(c(CCCCCCCCCC)c4ccc1[nH]4)C=C3)C=C2; > 100 µM (inactive)
11) COC(=O)/C=C1/OC(c2ccc(OC)cc2)=C(Cl)C1=O; 12.3 µM (inactive)
12) CC[C@]1(Cc2ccc(OC)c(OC)c2)C2CC(C(=O)OC)ON2O[C@H](OCc2ccccc2)[C@@H]1OC(C)=O (stereo not given in full); > 100 µM (inactive)
13) CC(C)=CCC/C(C)=C/CC/C(C)=C/CCN(C)CCO; 10.9 µM (inactive)
14) CC1Cc2cc(O)ccc2C2[C@@H]1C1CC[C@H](O)[C@@]1(C)C[C@@H]2O[N+](=O)[O-] (stereo not given in full); 12.1 µM (inactive)
15) Nc1ccc(/N=N/c2c(S(=O)(=O)O)cc3ccccc3c2S(=O)(=O)O)cc1; > 100 µM (inactive)

====

System: CCRF-CEM
ASSAY_SUMMARY: NCI tumour cell line growth inhibition, 48 h
Active and inactive are the calls of the source. No stated cut-off is given here; in the data, active = GI50 up to about 1.1 µM and inactive = higher.
Classes used: active, inactive

1. OCC1=CC(NC2CC(CO)C(O)C(O)C2O)C(O)C(O)C1O (centres undefined); inactive
2. Cc1oc(N)c(S(=O)(=O)/C(C#N)=C/c2ccccc2[N+](=O)[O-])c1C; inactive
3. Oc1ccc2ccccc2c1C(c1ccc(Cl)cc1)c1c(O)ccc2ccccc12; inactive
4. COc1cc(S(=O)(=O)Nc2ccc(-c3csc(N4C(=O)C(Cl)C4c4ccccc4)n3)cc2)ccc1Cl (centres undefined); inactive
5. O=c1[nH]nc(Cc2ccccc2)n1/N=C\CC/C=N\n1c(Cc2ccccc2)n[nH]c1=O; inactive
6. C[C@]12CC[C@H](O)CC1=CC[C@@H]1[C@@H]2CC[C@]2(C)C(=N/N)/C(=N\O)C[C@@H]12; inactive
7. Cc1ccc(/N=N/C(=O)NNc2ccc(C)cc2Br)c(Br)c1; inactive
8. CC(C)CC/N=c1/cc2n(-c3ccc(Cl)cc3)c3ccccc3nc-2cc1Nc1ccc(Cl)cc1; inactive
9. CC(C)OP(=O)(OC(C)C)/C(=N/Nc1ccc([N+](=O)[O-])cc1)NNC(=O)c1ccccc1; inactive
10. CC1CCC(C(C)C)C(O[C@@H]2OC(=O)C[C@@H]2Sc2ccccc2)C1 (some centres undefined); inactive
11. O=C(/C=C/c1ccc(-c2ccccc2)cc1)NCc1ccc(C(=O)NCc2ccccc2)cc1; inactive
12. COc1cc2c(c(OC)c1OC)-c1ccc(SC)c(=O)cc1[C@@H](OC(=O)c1ccncc1)CC2; active
13. CS(=O)(=O)c1ccc2nc(-c3ccc(O)cc3)sc2c1; inactive
14. CC(C)(C)OC(=O)n1cc(C2CN(O)C(=O)C23CCC(=O)N3Cc2ccccc2)c2ccccc21 (centres undefined); inactive
15. O=C(O)c1ccccc1-c1ccccc1C(=O)Nc1ccc2c(c1)nc(O)c1ccccc12; inactive
16. CS(=O)(=O)CSCSSCS(C)(=O)=O; inactive
17. COc1c(N2CCCCC2)c2c(=O)c3ccccc3oc2c2cc(C)oc12; inactive
18. C1CN2CCNCCN(CCN1)CC2; inactive
19. Cc1ccc(S(=O)(=O)c2ccccn2)cc1; inactive
20. O=C(C#Cc1cnc(O)nc1O)c1ccccc1Cl; inactive
21. NC1CCC(N(CC(=O)O)CC(=O)O)C(N(CC(=O)O)CC(=O)O)C1 (centres undefined); inactive
22. c1ccc2c(c1)cc(C1NCCc3nc[nH]c31)c1ccccc12 (centres undefined); inactive
23. C[C@]12CCC(=O)C=C1CC[C@@H]1[C@@H]2[C@@H](O)C[C@@]2(C)[C@H]1CC[C@]2(O)C(=O)COC(=O)COCC(=O)O; inactive
24. N#CC1(Cc2ccccc2Cl)c2ccccc2C=CN1C(=O)c1ccccc1 (centres undefined); inactive
25. CCC#CCCCCCCCCC(F)C(=O)O (centres undefined); inactive
26. Cc1cc(-c2nc3cc(F)ccc3s2)ccc1N; inactive
27. O=C(O)C(CS)NCc1c2ccccc2[n+]([O-])c2ccccc12 (centres undefined); inactive
28. O=C(CCc1ccccc1)ON1C(=S)C(c2ccccc2)(c2ccccc2)N=C1Sc1ccccc1; inactive
29. O=C(CNc1ccc(Cl)cc1Cl)Nn1c(-c2ccccc2)nc2ccccc2c1=O; inactive

====

Test system: MCF7
ASSAY_SUMMARY: NCI tumour cell line growth inhibition, 48 h
The source made the active and inactive calls. Cut-off read from the data, not from the text of the source: active = GI50 up to about 1.1 µM and inactive = higher.
Reported values of GI50 for individual entries
PROPERTY_LABEL: GI50

1) Cc1nn2c(N)cc(=O)nc2nc1/C=C/c1ccc(N(C)C)cc1; 3.92 µM (inactive)
2) COc1cccc2c1-c1nc(N)c3c(OC)cccc3c1C2=O; > 100 µM (inactive)
3) CCCCC1(O)CC2CC1C(C)C2(C)C (stereo unspecified); > 100 µM (inactive)
4) CCCCCc1cc(CCCC)sc1-c1ccco1; 76.4 µM (inactive)
5) N#CCCN(C(=O)Nc1ccc(NC(=O)N(CCC#N)c2ccccc2)cc1)c1ccccc1; > 100 µM (inactive)
6) CSCCC(NC(=O)C(Cc1c[nH]c2ccccc12)NC(=O)CCNC(=O)OC(C)(C)C)C(=O)NC(CC(=O)O)C(=O)NC(Cc1ccccc1)C(N)=O (stereo unspecified); > 50 µM (inactive)
7) O=c1c(Br)c(-c2ccccc2)[s+]([O-])c2ccccc12 (stereo unspecified); 2.96 µM (inactive)
8) Nc1nc(N)nc(-c2ccccc2NS(=O)(=O)c2ccc([N+](=O)[O-])cc2)n1; > 81.5 µM (inactive)
9) CC(C)(C)c1ccc(O)c(Br)c1; > 100 µM (inactive)
10) O=Cc1c(-c2ccccc2)nc2ccccc2c1O; 39.3 µM (inactive)
11) Clc1ccc(COC(Cn2ccnc2)c2ccc(Cl)cc2Cl)cc1 (stereo unspecified) [ECONAZOLE NITRATE]; 8.26 µM (inactive)
12) COc1ccccc1NC(=O)CC(=O)NN; > 100 µM (inactive)
13) O=C(c1c(F)c(F)c(F)c(F)c1F)N1CCN(C(=O)c2c(F)c(F)c(F)c(F)c2F)C1=S; 5.43 µM (inactive)
14) Cc1nc2ccc(Cl)cc2c2c1CCN2c1ccc(F)cc1; 12.2 µM (inactive)
15) COc1ccc2oc3c(ccc[n+]3C)c(=O)c2c1; > 100 µM (inactive)
16) C=C([C@@]1(O)C[C@H]2[C@H](CCC2(OC)OC)[C@@H]2c3ccccc3O[C@@H]21)[Si](C)(C)C; 93.1 µM (inactive)
